Ref: PubChem BioAssay (NCI)

tested on: TK-10 renal; assay: NCI-60 one-dose screen, 48 h; conditions: 10 µM unless noted
This is part of a sample that, as a whole, favours compounds with a hit. Of some 83,000 tested, about 20% had one in any assay. The source made the active and inactive calls. How the source made its calls: active means growth percent below 10; inactive means the rest.
Outcomes: active, inactive

[[record]]
compound = "Brc1c[n+](Cc2ccc3ccccc3c2)cn1Cc1ccc2ccccc2c1"
assignedcategory = "inactive"

[[record]]
compound = "O=C(Nc1ccc(Cl)cc1F)c1ccccc1O"
assignedcategory = "inactive"

[[record]]
compound = "CCOc1cccc(NC2=C(Br)C(=O)C(C)=C(C)C2=O)c1"
assignedcategory = "inactive"

[[record]]
compound = "COc1cc(C(=O)N/N=C/c2cc3cc(OCc4ccccc4)ccc3nc2OC)cc(OC)c1OC"
assignedcategory = "inactive"

[[record]]
compound = "N#Cc1ccc(NC(=O)c2sc3nc4c(cc3c2N)C(=O)CCC4)cc1"
assignedcategory = "inactive"

[[record]]
compound = "NC[C@@H]1O[C@H](O[C@@H]2[C@@H](CO)OC(O[C@@H]3[C@@H](O)[C@H](N)C[C@H](N)[C@H]3OC3O[C@H](CN)[C@@H](O)[C@H](O)[C@H]3N)[C@@H]2O)[C@H](N)[C@@H](O)[C@@H]1O (stereo partly specified)"
assignedcategory = "inactive"

[[record]]
compound = "COc1ccc(/C=C/c2c(C(=O)/C=C/c3ccc(Cl)cc3)c(C)nc3ccccc23)cc1"
assignedcategory = "inactive"

[[record]]
compound = "Oc1ccc(-c2nc3ccc4[nH]ncc4c3c3c2CCCC3)c2cccnc12"
assignedcategory = "inactive"

[[record]]
compound = "N#C/C(=C\\c1ccc(F)cc1)n1nc2cccc(F)c2n1"
assignedcategory = "inactive"

[[record]]
compound = "Cc1ccc2c(-c3cc(-c4ccccc4)nc(N)c3C#N)cc(=O)oc2c1"
assignedcategory = "inactive"

[[record]]
compound = "Nc1ccccc1-c1cc2c(c3c1[nH]c1ccccc13)CCCCC2"
assignedcategory = "inactive"

[[record]]
compound = "C/C(=C(/c1ccccc1)c1ccc(N2C(=O)c3cccc4c(N5CCN(C)CC5)ccc(c34)C2=O)cc1)c1ccccc1"
assignedcategory = "inactive"

[[record]]
compound = "COc1cccc(-c2nc(-c3ccc(NS(=O)(=O)c4ccccc4)cc3)[nH]c2-c2ccnc(Br)c2)c1"
assignedcategory = "inactive"

[[record]]
compound = "NCCCNc1nc2ccccc2c2c(=O)c3cc(OC(F)(F)F)ccc3sc12"
assignedcategory = "inactive"

[[record]]
compound = "O=C(Cc1ccc(F)c(Cl)c1)Nc1cc(C2(C(F)(F)F)CC2)nn1Cc1ccccc1"
assignedcategory = "inactive"

[[record]]
compound = "CCCCCCN1C(=O)/C(=c2\\sc3n(c2=O)C2C(NN=3)N(CC)C(=O)N2CC)c2ccccc21 (stereo unspecified)"
assignedcategory = "active"


----------
test system: SF-295 CNS; assay: NCI-60 one-dose screen, 48 h (100 = growth as untreated, 0 = no growth, -100 = all killed); conditions: 10 µM unless noted
This is part of a sample that, as a whole, favours compounds with a hit. Of some 83,000 tested, about 20% had one in any assay.
attributeMeasured: growth (%)

[[record]]
compound = "CCOC(=O)C1=C(N)Oc2c(sc3c(CC)cccc23)C1c1ccc(F)cc1 (stereo not drawn)"
testvalue = 11.8

[[record]]
compound = "O=c1c2cc(F)ccc2sc2c(NCCN3CCOCC3)nc3ccccc3c12"
testvalue = 89.4

[[record]]
compound = "O=C(Nc1ccc(I)cc1F)c1cc(I)ccc1O"
testvalue = -34

